# Tested on: MS2 coat protein
# Assay explanation: apparent KD of MS2 coat protein; designed switch direction (-1 OFF switch, 1 ON switch): -1; higher = weaker reporter binding
# Test conditions: input ligand: FMN 200 uM
Everything with apparent KD of MS2 coat protein lower than 50 nM is label 0; everything else, including exactly 50 nM, is label 1.

Consider the worked cases shown below.
Query sequence: AGUCGGUCAGGAUAUGCAAACGUGGACAUGAGGAUCACCCAUGUAACGUGGGCCUGGUUUGUAGAAGGGACGAGCA [EX5 #86] (Eterna round: R97, puzzle: Exclusion 5)
Group: label 0

Query sequence: AAGAGAGCAGGAUAUACAUGAGGAUCACCCAUGUGGGAAAUAAGUGGCGUACCACAAAGUAGAAGGGCUUUCCA [jl-ex3-4.80 Eli automod] (Eterna round: R97, puzzle: Exclusion 3)
Group: label 1

Query sequence: ACAAGAGCGGAAGGAUAUUGUACAUGAGGAUCACCCAUGUAAUAAAUGAGGAUCACGGAUGUAGUCAAGAAGGUCCGGAUAAGA [Ostracism 1 - Jieux - Exclusion NG 2] (Eterna round: R96, puzzle: Exclusion NG 2)
Group: label 0

Query sequence: CCACGACAUGAGGAUCACCCAUGUGAGGAUAUGACCUGAAAAGCGUGAGCAGUUUGUAUCAGAAGGCGCGUAGG [salish99_ex1_r4_067] (Eterna round: R97, puzzle: Exclusion 1)
Group: label 0

Query string: // inclusive: apparent KD of MS2 coat protein at least 50 nM? input: AGCUAACGAACAGGAUAUCCAAAGCGAUAGCAGGGAGAAGGGUUCAGAACUUGAGGAUCACCCAAGUGGGCUGAGCUCGGGAAA [Mutated MS2 EX1.3] (Eterna round: R96, puzzle: Exclusion NG 1)
Result string: label 0

###

# Test system: K4 kissing-loop RNA reporter
# Assay explanation: apparent KD of K4 kissing-loop reporter; higher = weaker reporter binding
# Test conditions: Eterna round: R107; input ligand: theophylline 20 uM
Readout name: apparent KD of K4 kissing-loop reporter (nM)
Give your result in nM as a bare value.

Query sequence: AUCCGGAGUGCGGCCGCCACUAUCGGAUAGAGUGAUGUUCUAUCCGGCCUUAAAGGCGCGAACGAUAGGACCGGGCACUCUAAAU [Quatinti]
apparent KD of K4 kissing-loop reporter / nM: 128
--
Query sequence: AUUAAUUUCAGAGGAUAUGCUUUAUUAUUAUUUUUAAAUAAUAUAAGCAGUGAUGUUGCUUUUUAUGCAGAAGGCUGAUUUAUAA [JR_SSFMNB_Sub016]
apparent KD of K4 kissing-loop reporter / nM: 384

Okay, now this sequence:
Query string: Quick one: apparent KD of K4 kissing-loop reporter for GCGCGUCAUGUCAGCGGUGACACUGUCGAUACCAGCGCCGGAAGGCGCCCUUGGCAGCGACGUGCUGGAGUGAUGUUCCAGCGUG [#2 Exclusion - Theophylline A Attempt #26 (HarryS)] ?
Result string: 206

###

Reported apparent KD of K4 kissing-loop reporter values are given for each entry in this list.
# Tested on: K4 kissing-loop RNA reporter;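 note: bound reporter read as fluorescence of individual clusters on recovered sequencing chips by microscopy, with normalized cluster intensities fitted with a binding model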
# Assay explanation: apparent KD of K4 kissing-loop reporter; higher = weaker reporter binding
# Test conditions: Eterna round: R107; input ligand: tryptophan 2.4 mM
Give your result in nM as a bare value.

Query sequence: UGAUAGGACAGAAGGAGCGGAAGUGAUGUUUCCAAUGGAUAAAAGGUGUCAAAGACACCCUUCCAGGUAGGUCGCUGUCCUAUCU [ArgBX 17 #Palindromic #SwitchBubble #StaticStem]
apparent KD of K4 kissing-loop reporter (nM): 132
--
Query sequence: AAGCAGUCCCUCGAAGCCAUCGAAGAUGGGCGAGGACCGGUACGGCCGCCACUCGGAGUGAUGUUCCGAAGACUGCAAAAUAAAA [MatMod 3 - Jieux - Exclusion - Tryptophan A]
apparent KD of K4 kissing-loop reporter (nM): 185
--
Query sequence: GCCGUACGCAUGGAUACCAGACUACCAUUGGAAACAAUGUGUCCGGUAGUGAUGUUACCUGUCCCUUGGCAGCCAUGCGUACGGC
apparent KD of K4 kissing-loop reporter (nM): 655
--
Query sequence: CCUAUCUCAUACGAUACCAGUCAAAUAAAUUAUAACGAGUGAUGUUCGAAAUGCCAUCACGACCCUUGGCAGCGUAUGGGAUAGG [Ex Theophylline B K4 1]
apparent KD of K4 kissing-loop reporter (nM): 125
--
Query sequence: AAAUAGAUCAGUCACCCAGUGAUGUUGGAAGGAGCGUGCGAAAGCACAGGUAGGUCGCCAAAACCUAAGUGGCUGAUCAAAAUAA [#SwitchBubble 4 #K4Early]
apparent KD of K4 kissing-loop reporter (nM): 587

Query string: Quick one: apparent KD of K4 kissing-loop reporter for AGGAUGUAGUGAUGUUAUAUAAAAGGUAAACGAGGACCGGUACGGCCGCCACUCGAAGCGGCUGCUAAGAGGGAAAGAAGAGGAA [ExTryptoA.E] ?
Result string: 371

Reference source: the supplement of paper PMC9170038
